experimentalSystem: T1, recombinant N-terminal extracellular domain of the human PTH1R receptor (human, UniProt Q03431 27-188, limits assumed)
T1 construct: domain: N-terminal extracellular domain; Bought reagent; also called N-ECD PTH1R; PTH1R N-terminal ECD
T1 sequence (looked up): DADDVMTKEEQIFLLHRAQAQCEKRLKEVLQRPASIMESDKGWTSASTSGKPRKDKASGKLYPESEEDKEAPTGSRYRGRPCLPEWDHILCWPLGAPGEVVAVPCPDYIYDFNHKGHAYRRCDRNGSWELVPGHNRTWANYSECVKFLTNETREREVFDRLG
procedureDetails: SPR, IgG captured, ECD injected
For each of the binders below, state its log10(Kd).
Remember, log10 of Kd, in pM.

// solved cases for log10(Kd) follow
| binder | log10(Kd) |
| --- | --- |
| XPA.85.334 (antibody, V domains shown, Light-chain-shuffled variant of XPA.85.012) VH: QMQLVQSGAEVKKPGSSVKVSCKASGGTFSSYAISWVRQAPGQGLEWMGGIIPIFGTANYAQKFQGRVTITADESTSTAYMELSSLRSEDTAVYYCARGYVVARLWGQGTLVTVSS VL: DIVMTQTPLSLSVTPGQPASITCKSSQSLLHIDGKTYLYWFLQKPGQPPQLLIYEVSNRFSGVPDRFSGTGSGTDFTLKISRVEAEDVGVYYCMQSLHFPITFGPGTRLEIK | 2.40 |
| XPA.85.342 (antibody, V domains shown, Light-chain-shuffled variant of XPA.85.012) VH: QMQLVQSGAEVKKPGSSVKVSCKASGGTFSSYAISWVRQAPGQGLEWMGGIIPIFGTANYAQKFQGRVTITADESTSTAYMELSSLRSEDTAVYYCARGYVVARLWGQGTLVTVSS VL: ETTLTQSPTFMSASVGDRVTITCQASQDINNFLNWYQQKPGKAPKFLIYDASNLEKGVPSRFSGRGSGTEFTLTISSLQPEDIATYYCQQYRDFPLTFGQGTRLEIK | 2.72 |
| XPA.85.333 (antibody, V domains shown, Light-chain-shuffled variant of XPA.85.012) VH: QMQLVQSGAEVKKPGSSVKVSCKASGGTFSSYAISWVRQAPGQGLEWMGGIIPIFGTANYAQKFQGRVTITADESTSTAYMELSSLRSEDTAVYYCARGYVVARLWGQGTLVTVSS VL: DVVMTQTPLSLSVTPGQPASISCKSSQSLLHIDGKAYLYWYLQKPGQSPHLLIREVSTRFSGVSDRFTGSGSGTDFTLEISRVEAEDVGVYYCMQGLHLPPTFGQGTKVEIK | 2.48 |

Here are 3 binders. What values of log10(Kd) were reported for them?
1. XPA.85.339 (antibody, V domains shown, Light-chain-shuffled variant of XPA.85.017) VH: EVQLVETGGGVVRPGGSLRLSCAASGFTFSSSAMSWVRQTPGKELQWVSAITPGGEGTYYADVVKGRFTISRDNSKDTLYLQMDSLRAEDTAVYYCARDLYGSYGDAFDIWGQGTLVTVSS VL: SYELTQPPSVSVAPGQTATITCSGDRLGDKFISWYQQKPGQSPLLVIFEDNERPSRIPERFSGSNSGNSATLTISGTQAVDEADYYCQAWDSSWVFGGGTQLTVL
2. XPA.85.329 (antibody, V domains shown, IgG; also called Ab329; XPA.329) VH: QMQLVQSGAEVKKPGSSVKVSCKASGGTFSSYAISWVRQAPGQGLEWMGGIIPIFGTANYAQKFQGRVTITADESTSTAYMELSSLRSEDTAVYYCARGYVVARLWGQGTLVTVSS VL: DIVMTQTPLSLSVTPGQPASISCKSSQSLLHIDGLTYLYWYLQKPGQPPQLLIYEVSHRFSGVSDKFSGSGSGTDFTLTISRVEAEDVGVYYCMQSLHLPITFGQGTRLEIK
3. XPA.85.327 (antibody, V domains shown, Light-chain-shuffled variant of XPA.85.012; also called XPA.327) VH: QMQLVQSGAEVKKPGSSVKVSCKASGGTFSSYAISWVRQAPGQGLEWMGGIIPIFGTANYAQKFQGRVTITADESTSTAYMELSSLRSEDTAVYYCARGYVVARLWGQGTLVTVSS VL: DIVMTQTPLSLSVTPGQPASITCKSSQSLLHIDGNTYLYWYLQRPGQPPQLLIYEISNRFSGVPDRFSGSGSGTDFTLKISRVEAEDVGVYYCMQSLHFPITFGQGTRLEIK

A:
1. 2.34
2. 2.34
3. 2.18
